The origin of these recorded values is paper PMC8175350.

Listing of recorded Calu-3 uninfected cytotoxicity Sinf Average by entry.
Test system: Calu-3 cells
Assay: Uninfected Calu-3 48 h Cell-Titer Glo cytotoxicity counter screen
Details: curve-fit effect at infinite concentration, average
Answer with a number only, understood to be in %.

Below are worked cases with known answers.
MOLECULE: COC(=O)[C@]12CCC(C)(C)C[C@H]1[C@H]1C(=O)C=C3[C@@]4(C)C=C(C#N)C(=O)C(C)(C)[C@@H]4CC[C@@]3(C)[C@]1(C)CC2 [Bardoxolone methyl]
SCALE UNIT: %
OBSERVED VALUE: -97
//
MOLECULE: CC[C@H]1CN2CCc3cc(OC)c(OC)cc3[C@@H]2C[C@@H]1C[C@H]1NCCc2cc(O)c(OC)cc21 [Cephaeline]
SCALE UNIT: %
OBSERVED VALUE: -68
//
MOLECULE: COC(=O)[C@@]12OC[C@]34[C@H]([C@@H](O)[C@@H]1O)[C@@]1(C)CC(=O)C(O)=C(C)[C@@H]1C[C@H]3OC(=O)[C@H](OC(=O)/C=C(\C)C(C)C)[C@@H]24 [Bruceantin]
SCALE UNIT: %
OBSERVED VALUE: -53
//
MOLECULE: NS(=O)(=O)c1ccc(N2N=C(C(F)(F)F)CC2c2c[nH]c3c(Cl)cccc23)cc1 (centres unmarked) [ON-09310]
SCALE UNIT: %
OBSERVED VALUE: -97

Form: molecule = CC[C@@H]1/C=C/C=C/C[C@H](C)[C@@H](O)[C@](C)(O)C(=O)[C@H](C)[C@@H](O)[C@H](C)C(=O)[C@H](C)[C@@H](O)[C@H](C)/C=C/C(=O)O[C@H]2[C@@H](C)[C@@H](CC1)O[C@]1(O[C@H](C[C@H](C)O)[C@H](C)CC1=O)[C@@H]2C [Oligomycin B] ; Calu-3 uninfected cytotoxicity Sinf Average = -89

---

Test system: SARS-CoV-2
Test: microbe, parasite or virus in culture
Type: cell-based
Conditions: Severe acute respiratory syndrome coronavirus 2, HeLa-ACE2, 24 h, curve-fit effect at infinite concentration, average; read-out: HeLa-ACE2 CoV-2 Sinf Average
PROPERTY: Emax (%)
Enter your answer as a number in %; do not include the unit.

Below: 2 molecules and their reported Emax.
MOLECULE: CC[C@H]1CN2CCc3cc(OC)c(OC)cc3[C@@H]2C[C@@H]1C[C@H]1NCCc2cc(OC)c(OC)cc21
SCALE UNIT: %
OBSERVED VALUE: 100
//
MOLECULE: CCCCCCCCCCCCCC(=O)O[C@@H]1[C@@H](C)[C@@]2(O)[C@@H](C=C(CO)C[C@]3(O)C(=O)C(C)=C[C@@H]23)[C@@H]2C(C)(C)[C@]12OC(C)=O [Phorbol 12-myristate 13-acetate]
SCALE UNIT: %
OBSERVED VALUE: 40

Now take the following molecule into account.
Cn1c(C#N)ccc1-c1ccc2c(c1)C(C)(C)OC(=S)N2 has a reported Emax of 49

---

Test system: SARS-CoV-2
Format: cell-based
Conditions: combination with remdesivir
Where a name gives a salt, the structure may show the parent alone.
PROPERTY: HeLa-ACE2 synergy score with remdesivi

// below: answered compounds
COMPOUND: CCN(CCO)CCCC(C)Nc1ccnc2cc(Cl)ccc12 (stereo not shown) [Hydroxychloroquine sulfate]
PROPERTY: HeLa-ACE2 synergy score with remdesivi
OBSERVED VALUE: -1.572 δ
//
COMPOUND: Nc1nc(Nc2ccc3c(c2)CC[C@@H](N2CCCC2)CC3)nn1-c1cc2c(nn1)-c1ccccc1CCC2
PROPERTY: HeLa-ACE2 synergy score with remdesivi
OBSERVED VALUE: 7.223 δ
//
COMPOUND: CN1CCN(c2ccc(C(=O)NCc3cnc(C#N)nc3NCC(C)(C)C)cc2)CC1
PROPERTY: HeLa-ACE2 synergy score with remdesivi
OBSERVED VALUE: 2.955 δ

Note to self: HeLa-ACE2 synergy score with remdesivi recorded for COc1ccc2c(O[C@@H]3C[C@H]4C(=O)N[C@]5(C(=O)NS(=O)(=O)C6CC6)C[C@H]5/C=C\CCCCN(C)C(=O)[C@@H]4C3)cc(-c3nc(C(C)C)cs3)nc2c1C was -0.667 δ

---

System: Calu-3 cells
Details: human, 48 h
PROPERTY: Calu-3 uninfected cytotoxicity Sinf Average

Here are 6 compounds together with their reported answers.
COMPOUND: COc1ccc2c(O[C@@H]3C[C@H]4C(=O)N[C@]5(C(=O)NS(=O)(=O)C6CC6)C[C@H]5/C=C\CCCCN(C)C(=O)[C@@H]4C3)cc(-c3nc(C(C)C)cs3)nc2c1C
TESTED ON: Calu-3 cells
OBSERVED VALUE: -100%
--
COMPOUND: CNC(=O)n1ccc2cc(Oc3ccnc(NC(=O)c4ccc(C5CCN(CCO)CC5)cc4)c3)c(OCCOC)cc21
TESTED ON: Calu-3 cells
OBSERVED VALUE: -97%
--
COMPOUND: COC(=O)C1=C(C)NC(C)=C(C(=O)OCCN2CCN(C(c3ccccc3)c3ccccc3)CC2)C1c1cccc([N+](=O)[O-])c1 (stereo not shown)
TESTED ON: Calu-3 cells
OBSERVED VALUE: -100%
--
COMPOUND: COc1ccc2c(c1)[C@]1(C[C@H]1c1ccc3c(/C=C/c4ccc(CN5C[C@@H](C)O[C@@H](C)C5)cc4)n[nH]c3c1)C(=O)N2
TESTED ON: Calu-3 cells
OBSERVED VALUE: -98%
--
COMPOUND: Nc1ncnc2c1nc(Cl)n2[C@@H]1O[C@H](CO)[C@@H](O)[C@H]1O
TESTED ON: Calu-3 cells
OBSERVED VALUE: -92%
--
COMPOUND: CC(C)Oc1ccc(-c2nc(-c3cccc4c3CC[C@@H]4NCCO)no2)cc1C#N
TESTED ON: Calu-3 cells
OBSERVED VALUE: -100%

Turning now to a further record.
Data point: Cc1cccc(/C=N/Nc2cc(N3CCOCC3)nc(OCCc3ccccn3)n2)c1 ; Calu-3 uninfected cytotoxicity Sinf Average = -100%

---

Measured CC50 at 72 h, listed per entry.
Assay: in vitro
Settings: human
Reply numerically in µM, unit not repeated.

COMPOUND: COC(=O)C1=C(C)NC(C)=C(C(=O)OCCN2CCN(C(c3ccccc3)c3ccccc3)CC2)C1c1cccc([N+](=O)[O-])c1 (centres unmarked) [Manidipine (Manyper)]
OBSERVED VALUE: 30.8

The reported value for Oc1ccc(Nc2ccnc3cc(Cl)ccc23)cc1CN1CCCC1 [Amopyroquine] in terms of CC50 at 72 h is 6.31

---

Assay: Uninfected HeLa-ACE2 24 h live/dead cytotoxicity counter screen
Type: cell-based, human
Conditions: human, uninfected HeLa-ACE2 cells, geometric mean of replicates; read-out: HeLa-ACE2 uninfected cytotoxicity CC50 GeoMean
Structures can show the parent of a compound that is named as a salt.
PROPERTY: CC50 at 24 h

Example entries and their recorded answers appear below.
COMPOUND: O[C@@H]1CO[C@H]2[C@@H]1OC[C@H]2Oc1nc2nc(-c3ccc(-c4ccccc4)cc3)c(Cl)cc2[nH]1
CC50 at 24 h: > 37.4 µM

COMPOUND: CC/C(=C(/c1ccc(/C=C/C(=O)O)cc1)c1ccc2[nH]ncc2c1)c1ccc(F)cc1Cl
CC50 at 24 h: 11 µM

COMPOUND: CCCCCC[C@H]1C(=O)O[C@H](C)[C@H](NC(=O)c2cccc(NC=O)c2O)C(=O)O[C@@H](C)[C@@H]1OC(=O)CC(C)C [Antimycin A]
CC50 at 24 h: > 39.8 µM

COMPOUND: CN(C)C(C(=O)Nc1ccc2c(=O)[nH]ccc2c1)c1ccsc1 (stereo not drawn)
CC50 at 24 h: > 39.8 µM

COMPOUND: N=C(N)c1ccc2cc(OC(=O)c3ccc(CNC(=O)CCCC(=O)O)o3)ccc2c1
CC50 at 24 h: > 39.8 µM

COMPOUND: O=C(Nc1ccc(Cl)c(S(=O)(=O)N2CCNCC2)c1O)Nc1cccc(F)c1Cl [Elubrixin tosylate]
CC50 at 24 h: > 39.8 µM

Next:
CC50 at 24 h for CCOc1ccc(Cc2nc3cc(N(C)S(=O)(=O)c4cccs4)ccc3n2CC2CCCCC2)nc1 is > 33 µM

---

System: Calu-3 cells
Conditions: human, 48 h
Let's look at some compounds and their measured Calu-3 uninfected cytotoxicity Sinf Average (%).
Numeric answer only, unit % assumed.

The examples below pair each entry with its known result.
COMPOUND: CSc1ccc(CN2CCCC(Nc3ccc4[nH]ncc4c3)C2)cc1 (stereo not shown) [INS-117548]
OBSERVED VALUE: -92
--
COMPOUND: O=c1[nH]c2ccc(C(F)(F)F)cc2c(-c2cc(Cl)ccc2O)c1CCO [BMS-223131]
OBSERVED VALUE: -100
--
COMPOUND: CC/C(=C(/c1ccc(/C=C/C(=O)O)cc1)c1ccc2[nH]ncc2c1)c1ccc(F)cc1Cl [ARN-810]
OBSERVED VALUE: -89

Kindly consider the entry below.
Calu-3 uninfected cytotoxicity Sinf Average (%) recorded for this compound, O[C@@H]1CO[C@H]2[C@@H]1OC[C@H]2Oc1nc2nc(-c3ccc(-c4ccccc4)cc3)c(Cl)cc2[nH]1 [MK-8722] , is -95
